Numbers sourced from patent US20100291106A1.

Measured HA (nM), 10% cyno serum, IC50, listed per entry for reference.
target: cynomolgus complement C3b protein (cynomolgus monkey (Macaca fascicularis)); assay: cell-based or functional assay
Answer in nM, number only, no unit symbol.

Example results:
[
  {
    "binder": "MOR9675 Fab format (Fab, V domains shown) VH: EVQLVQSGAEVKKPGASVKVSCKASGYTFTGYYINWVRQAPGQGLEWMGIISPNQGTTGYAQKFQGRVTMTRDTSISTAYMELSSLRSEDTAVYYCARGNYDHLDYWGQGTLVTVSS VL: DIQMTQSPSSLSASVGDRVTITCRASQGISNYLNWYQQKPGKAPKLLIYDASTLQSGVPSRFSGSGSGTDFTLTISSLQPEDFATYYCQQDWHTLPVTFGQGTKVEIK",
    "HA (nM), 10% cyno serum, IC50": 92
  },
  {
    "binder": "MOR9674 Fab format (Fab, V domains shown) VH: EVQLVQSGAEVKKPGASVKVSCKASGYTFTSYSMHWVRQAPGQGLEWMGLINPYNGNTHYAQKFQGRVTMTRDTSISTAYMELSSLRSEDTAVYYCARMLRFDVWGQGTLVTVSS VL: ESALTQPASVSGSPGQSITISCTGTSSDGGGYNYVSWYQQHPGKAPKLMIYGVSNRPSGVSNRFSGSKSGNTASLTISGLQAEDEADYYCQTYTRYSDSPVFGGGTKLTVLG",
    "HA (nM), 10% cyno serum, IC50": 78
  },
  {
    "binder": "MOR9610 Fab format (Fab, V domains shown) VH: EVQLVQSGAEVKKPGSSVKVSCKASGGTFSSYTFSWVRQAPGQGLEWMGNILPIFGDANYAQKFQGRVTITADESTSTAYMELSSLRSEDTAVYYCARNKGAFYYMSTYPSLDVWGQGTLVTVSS VL: DIQMTQSPSSLSASVGDRVTITCRASQNINYYLNWYQQKPGKAPKLLIYDAFSLQSGVPSRFSGSGSGTDFTLTISSLQPEDFATYYCQQSIAVPPFTFGQGTKVEIK",
    "HA (nM), 10% cyno serum, IC50": 64
  }
]

Provide only the value of recorded HA (nM), 10% cyno serum, IC50 for MOR9556 Fab format (Fab, V domains shown) VH: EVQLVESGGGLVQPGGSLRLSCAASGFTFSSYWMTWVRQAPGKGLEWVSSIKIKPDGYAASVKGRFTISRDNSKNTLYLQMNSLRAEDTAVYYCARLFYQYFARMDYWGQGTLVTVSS VL: DIQMTQSPSSLSASVGDRVTITCRASQDISNYLNWYQQKPGKAPKLLIYAASNLQSGVPSRFSGSGSGTDFTLTISSLQPEDFATYYCQQYDSYSPTFGQGTKVEIK
99
